Let's look at some compounds and their measured melting point.
Parameter: melting point (°C)

INSERT INTO assay_data (structure_string, measurement_unit, result_value) VALUES
  ('O=C1OC(=O)C2=C1CCCC2', '°C', 74),
  ('C[C@H]1CC[C@]2(NC1)O[C@H]1C[C@H]3[C@@H]4CC[C@H]5C[C@@H](O)CC[C@]5(C)[C@H]4CC[C@]3(C)[C@H]1[C@@H]2C', '°C', 210),
  ('CC(=O)OO', '°C', -0.2),
  ('CCCCOC(=O)/C=C\C(=O)OCCCC', '°C', -85),
  ('Cc1ccc(Cl)cc1N', '°C', 26),
  ('N#CCc1ccccc1[N+](=O)[O-]', '°C', 84),
  ('CCSCC[C@H](N)C(=O)O', '°C', 195);
